Items are presented alongside their recorded normalized RNA/DNA level without ligand (log10).
B1: library; a variant is named by its letters at N, in order (parent)
chain: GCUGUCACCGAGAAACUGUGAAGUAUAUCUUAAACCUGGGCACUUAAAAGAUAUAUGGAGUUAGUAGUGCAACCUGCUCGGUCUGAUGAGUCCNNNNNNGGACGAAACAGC

Variants of: B1
Assay: normalized RNA/DNA level without ligand (relative to sTRSVctl = 100) (log10 (% of sTRSVctl)); HEK293T; ligand: cyclic di-GMP (c-di-GMP-II aptamer); higher = less ribozyme self-cleavage, higher mRNA level
Details: reporter: mCherry (pCS4076), ligand present: no
reportedMetric: normalized RNA/DNA level without ligand (log10)

# mutationString, dataValue
records = [
    ("GCCUCG", 1.76),
    ("UUGCUG", 1.72),
    ("CCCCCG", 1.79),
    ("CCCAGU", 1.74),
    ("CCCUUU", 1.61),
    ("CUCCAA", 1.46),
    ("GGUCAU", 1.56),
    ("GGGAGC", 1.63),
    ("GUGGGG", 1.65),
    ("CCUAUU", 1.56),
    ("CAUAAU", 1.46),
    ("GCUUCG", 1.67),
    ("ACUGUA", 1.51),
    ("AUUACU", 1.73),
    ("CCGGCU", 1.74),
    ("AUCGCA", 1.65),
    ("GGAGAC", 1.72),
    ("AAAUGC", 1.64),
    ("AACUUG", 1.66),
    ("UGGAGC", 1.64),
    ("CGAUCA", 1.6),
    ("GCGCUU", 1.61),
    ("AUAGAG", 1.46),
    ("AAAGGA", 1.31),
    ("GCGAUA", 1.44),
    ("AACGCG", 1.7),
    ("CGUACU", 1.43),
    ("GUGCAU", 1.73),
    ("CCUACU", 1.58),
    ("GUGUCA", 1.75),
    ("CCUGAG", 1.55),
    ("ACUUUG", 1.59),
    ("AGGUGA", 1.52),
    ("GCUUAA", 1.56),
    ("UUCUUA", 1.76),
    ("AGCUUA", 1.57),
    ("AAGGUG", 1.51),
    ("UCAGCA", 1.67),
    ("GAGAAC", 1.65),
    ("GUACCA", 1.68),
    ("GGGACU", 1.68),
    ("AUGCAU", 1.62),
    ("ACUUUU", 1.6),
    ("UUGAUC", 1.73),
    ("CCACUC", 1.7),
]
